target: Substance-P receptor (Homo sapiens, UniProt P25103); assay: Binding affinity against Neurokinin 1(NK1) receptor from human IM-9 cells using [I]-Bolton Hunter labeled SP
Sequence (P25103 whole entry): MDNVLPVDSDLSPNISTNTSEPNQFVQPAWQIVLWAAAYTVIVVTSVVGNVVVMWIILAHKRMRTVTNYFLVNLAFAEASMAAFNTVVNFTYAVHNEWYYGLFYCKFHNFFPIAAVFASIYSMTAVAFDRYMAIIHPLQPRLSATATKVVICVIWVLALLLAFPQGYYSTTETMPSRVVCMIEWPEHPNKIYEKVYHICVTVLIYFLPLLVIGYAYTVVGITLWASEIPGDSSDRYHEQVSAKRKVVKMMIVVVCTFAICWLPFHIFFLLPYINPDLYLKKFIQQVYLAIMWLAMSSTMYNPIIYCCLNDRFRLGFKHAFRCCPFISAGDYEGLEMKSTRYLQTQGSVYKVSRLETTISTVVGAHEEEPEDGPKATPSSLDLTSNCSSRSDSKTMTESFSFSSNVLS
measured.metric: IC50 (nM)
// return numeric value only (unit: nM, not printed)

Here are 6 molecules together with their reported answers.
molecule="COc1cccc(C(=O)N2CCC(CCN3CCC(C(N)=O)(c4ccccc4)CC3)(c3ccc(Cl)c(Cl)c3)C2)c1 (configuration not stated)" measured_metric=IC50 result_units=nM reported_measurement=107
molecule="COc1c(Br)cc(C(=O)N2CCC(CCN3CCC(C(N)=O)(c4ccccc4)CC3)(c3ccc(Cl)c(Cl)c3)C2)cc1Br (configuration not stated)" measured_metric=IC50 result_units=nM reported_measurement=313
molecule="COc1ccccc1CC(=O)N1CCC(CCN2CCC(C(N)=O)(c3ccccc3)CC2)(c2ccc(Cl)c(Cl)c2)C1 (configuration not stated)" measured_metric=IC50 result_units=nM reported_measurement=48.2
molecule="COc1cc(C(=O)N2CCC(CCN3CCC(C(N)=O)(c4ccccc4)CC3)(c3ccc(Cl)c(Cl)c3)C2)cc(OC)c1OC (configuration not stated)" measured_metric=IC50 result_units=nM reported_measurement=6.19
molecule="COc1ccccc1C(=O)N1CCC(CCN2CCC(C(N)=O)(c3ccccc3)CC2)(c2ccc(Cl)c(Cl)c2)C1 (configuration not stated)" measured_metric=IC50 result_units=nM reported_measurement=73.6
molecule="CCOC(=O)Oc1c(OC)cc(C(=O)N2CCC(CCN3CCC(C(N)=O)(c4ccccc4)CC3)(c3ccc(Cl)c(Cl)c3)C2)cc1OC (configuration not stated)" measured_metric=IC50 result_units=nM reported_measurement=252

Attention now turns to another entry.
# query: IC50 of entry CC(C)Oc1cccc(CC(=O)N2CCC(CCN3CCC(C(N)=O)(c4ccccc4)CC3)(c3ccc(Cl)c(Cl)c3)C2)c1 (configuration not stated)
138
